# Procedure Details: Tmax in Sprague-Dawley rat at 10 mg/kg, po by LC-MS/MS analysis
# Format: ADME, organism-based
# Test Parameters: in vivo
Readout Type: Tmax (h)

• CC(=O)Nc1cccc(Nc2nc(Nc3ccc(N4CCN(C)CC4)cn3)ncc2Cl)c1 = 4

---

# Procedure Details: Cytotoxicity against human L02 cells assessed as inhibition of cell proliferation measured after 48 hrs by CCK8 assay
# Type: cell-based
Readout Type: GI50 at 48 h (µM)

* COc1cc(Nc2ncc(Cl)c(Nc3ccccc3C)n2)ccn1 | 18.4
* CN1CCN(c2ccc(Nc3ncc(Cl)c(NCc4ccc(C(F)(F)F)cc4)n3)nc2)CC1 | 26.2
* COC[C@@H](C)N[C@H]1CC[C@H](Nc2cc(-c3cccc(NCC4(C#N)CCOCC4)n3)c(Cl)cn2)CC1 | 28.3
* COc1ccc(Nc2nc(Nc3ccc(N4CCN(C)CC4)cn3)ncc2Cl)cc1 | 3.15
* COc1ccc(CNc2nc(Nc3ccc(N4CCN(C)CC4)cn3)ncc2Cl)cc1 | 12.9
* Cc1cc(C)c(Nc2nc(Nc3ccc(N4CCN(C)CC4)cn3)ncc2Cl)c(C)c1 | 20.5
* Cc1ccccc1Nc1nc(Nc2ccccn2)ncc1Cl | 6.15
* CN1CCN(c2ccc(Nc3ncc(Cl)c(Nc4ccc(C(C)(C)C)cc4)n3)nc2)CC1 | 6.07
* CC(C)c1ccc(Nc2nc(Nc3ccc(N4CCN(C)CC4)cn3)ncc2Cl)cc1 | 13.7
* Cc1ccccc1Nc1nc(Nc2ccc(N3CCN(C)CC3)cc2)ncc1Cl | 6.51
* CN1CCN(c2ccc(Nc3ncc(Cl)c(Nc4ccccc4)n3)nc2)CC1 | 7.99
* Cc1ccccc1Nc1nc(Nc2ccc(N3CCCCC3)cn2)ncc1Cl | 42.4
* Cc1ccccc1Nc1nc(Nc2cccnc2)ncc1Cl | 22.9
* Cc1ccccc1Nc1nc(Nc2ccc(N3CCCCC3)cc2)ncc1Cl | 5.69
* CCN1CCN(c2ccc(Nc3ncc(Cl)c(Nc4ccccc4C)n3)cc2)CC1 | 0.97
* Cc1ccccc1Nc1nc(Nc2ccc(N3CCOCC3)cc2)ncc1Cl | 5.37
* CN1CCN(c2ccc(Nc3ncc(Cl)c(NCCc4ccccc4)n3)nc2)CC1 | 14.9
* COc1cccc(Nc2nc(Nc3ccc(N4CCN(C)CC4)cn3)ncc2Cl)c1 | 3.47
* Cc1cccc(Nc2nc(Nc3ccc(N4CCN(C)CC4)cn3)ncc2Cl)c1 | 6.08
* Cc1ccccc1Nc1nc(Nc2ccc(N3CCNCC3)cn2)ncc1Cl | 1.85
* COc1cccc(CNc2nc(Nc3ccc(N4CCN(C)CC4)cn3)ncc2Cl)c1 | 16.2
* CC(C)c1cccc(Nc2nc(Nc3ccc(N4CCN(C)CC4)cn3)ncc2Cl)c1 | 12.5
* Cc1ccccc1Nc1nc(Nc2ccc(N3CCCN(C)CC3)cc2)ncc1Cl | 1.24
* CN1CCN(c2ccc(Nc3ncc(Cl)c(NCCc4ccccc4F)n3)nc2)CC1 | 9.67
* Cc1ccccc1Nc1nc(Nc2ccc(N3CCOCC3)cn2)ncc1Cl | 1.99
* Cc1ccccc1Nc1nc(Nc2cc(Cl)ccn2)ncc1Cl | 41.5
* CN1CCN(c2ccc(Nc3ncc(Cl)c(NCc4ccc(F)cc4)n3)nc2)CC1 | 39.7
* Cc1ccc(Nc2nc(Nc3ccc(N4CCN(C)CC4)cn3)ncc2Cl)cc1 | 13.9
* CCc1ccc(Nc2nc(Nc3ccc(N4CCN(C)CC4)cn3)ncc2Cl)cc1 | 12.1
